Assay: Phase 2 study: population pharmacokinetics of plasma concentrations
Assay type: in vivo, human (infants)
Settings: human, plasma, po, 0.5 mg/kg, Part 1, single oral dose 0.5 mg/kg; read-out: tmax median (range)

Compound	Tmax [h]
Cc1ccc2nc(N3CCS(=O)(=O)c4ccccc4C3)nc(NCC3(N)COC3)c2c1 [AK0529, ziresovir]	4.5

###

Assay: Phase 2 study: population pharmacokinetics of plasma concentrations
Type: in vivo, human (infants)
Details: human, plasma; Part 1, single oral dose 1.0 mg/kg; read-out: t½ mean (CV %) (converted)
Readout type: half-life (h)

Molecule	Readout type	Numeric readout
Cc1ccc2nc(N3CCS(=O)(=O)c4ccccc4C3)nc(NCC3(N)COC3)c2c1 [AK0529, ziresovir]	half-life	5.7

Origin of measurements: paper PMC10368966
